Biological target: linear di-SUMO2 (2×SUMO2-ΔN11) (UniProt P61956 12-95; P61956 12-95)
Sequence (P61956 other isoform, or with tags, fused parts or gaps mutant): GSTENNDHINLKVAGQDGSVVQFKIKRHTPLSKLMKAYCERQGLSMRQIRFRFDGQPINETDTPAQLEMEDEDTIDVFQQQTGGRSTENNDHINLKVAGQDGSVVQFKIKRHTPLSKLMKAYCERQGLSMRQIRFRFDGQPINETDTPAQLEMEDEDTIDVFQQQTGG
Test: ITC
Result type: Kd (µM)
Could you give me the number in µM? Just the number is fine.

The following binders have reported results that may help.
Binder: RNF4-SIM domain SIM4 mutant (domain or fragment) MSTRKRRGGAINSRQAQKRTREATSTPEISLEAEPIELVETAGDEIVDLTCESLEPVVVDLTHNDSAAAADERRRPRRNARRLPQDHADSCVVSSDDEELSRDRDVYVTTHTPRNARDEGATGLR
Kd, µM: 16
//
Binder: EAEPIELVETAGDEIVDLTCESL (exact peptide ends are only in Figure 2A; limits taken as SIM1 and SIM2 (IELV, VDLT) plus short flanks; end groups unknown) [RNF4-SIM1/2 peptide]
Kd, µM: 44
//
Binder: RNF4-SIM domain SIM1/4 double mutant (domain or fragment) MSTRKRRGGAINSRQAQKRTREATSTPEISLEAEPAAAAETAGDEIVDLTCESLEPVVVDLTHNDSAAAADERRRPRRNARRLPQDHADSCVVSSDDEELSRDRDVYVTTHTPRNARDEGATGLR
Kd, µM: 14

Given the binder LEPVVVDLTHNDSVVIVDERR (exact peptide ends are only in Figure 2A; limits taken as SIM3 and SIM4 (VDLT, VVIV) plus short flanks; end groups unknown) [RNF4-SIM3/4 peptide] , what is its reported Kd?
72

These data points were gathered from paper PMC3901395.
